Attribution: the NIST ThermoML archive (doi:10.1021/je900550v)

Experimental Conditions: 333.41 K; 101.33 kPa; Liquid; Pulse-echo method
Measure: speed of sound (m/s)
// note: answer is a bare numeric in m/s

Worked examples, 4 compounds total:
{"Compound": "C[NH2+]CCO.O=C[O-] [2-hydroxy-N-methylethanaminium formate]", "Measure": "speed of sound", "Obs Value": 1747.1}
{"Compound": "CC(C)C(=O)[O-].C[NH2+]CCO [2-hydroxy-N-methylethanaminium isobutyrate]", "Measure": "speed of sound", "Obs Value": 1511.2}
{"Compound": "CCCCC(=O)[O-].C[NH2+]CCO [2-hydroxy-N-methylethanaminium pentanoate]", "Measure": "speed of sound", "Obs Value": 1440.1}
{"Compound": "CCCC(=O)[O-].C[NH2+]CCO [N-methyl-2-hydroxyethylammonium butanoate]", "Measure": "speed of sound", "Obs Value": 1504.1}

From here, focus on the item given below.
// CCC(=O)[O-].C[NH2+]CCO [2-hydroxy-N-methylethanaminium propionate] : speed of sound value = 1585

* * *

Below, each entry is listed alongside its reported mass density.
Experimental Conditions: 311.91 K; 101.33 kPa; Liquid; Vibrating tube method
// note: answer is a bare numeric in kg/m3

Worked examples, 5 molecules total:
{"Molecule": "C[NH2+]CCO.O=C[O-] [2-hydroxy-N-methylethanaminium formate]", "Units Label": "kg/m3", "Obs Value": 1120.57}
{"Molecule": "CC(=O)[O-].C[NH2+]CCO [N-methyl-2-hydroxyethylammonium acetate]", "Units Label": "kg/m3", "Obs Value": 1092.55}
{"Molecule": "CCC(=O)[O-].C[NH2+]CCO [2-hydroxy-N-methylethanaminium propionate]", "Units Label": "kg/m3", "Obs Value": 1062.33}
{"Molecule": "CC(C)C(=O)[O-].C[NH2+]CCO [2-hydroxy-N-methylethanaminium isobutyrate]", "Units Label": "kg/m3", "Obs Value": 1034.48}
{"Molecule": "CCCC(=O)[O-].C[NH2+]CCO [N-methyl-2-hydroxyethylammonium butanoate]", "Units Label": "kg/m3", "Obs Value": 1030}

From here, focus on the item given below.
// CCCCC(=O)[O-].C[NH2+]CCO [2-hydroxy-N-methylethanaminium pentanoate] : mass density value = 1006.97

* * *

Experimental Conditions: 315.15 K; 101.33 kPa; Liquid; Vibrating tube method
Below, each entry is listed alongside its reported mass density.
// note: answer is a bare numeric in kg/m3

{"Molecule": "CCCCC(=O)[O-].C[NH2+]CCO [2-hydroxy-N-methylethanaminium pentanoate]", "mass density / kg/m3": 1004.75}
{"Molecule": "CCC(=O)[O-].C[NH2+]CCO [2-hydroxy-N-methylethanaminium propionate]", "mass density / kg/m3": 1060.17}
{"Molecule": "C[NH2+]CCO.O=C[O-] [2-hydroxy-N-methylethanaminium formate]", "mass density / kg/m3": 1118.77}
{"Molecule": "CCCC(=O)[O-].C[NH2+]CCO [N-methyl-2-hydroxyethylammonium butanoate]", "mass density / kg/m3": 1027.78}
{"Molecule": "CC(C)C(=O)[O-].C[NH2+]CCO [2-hydroxy-N-methylethanaminium isobutyrate]", "mass density / kg/m3": 1032.35}

From here, focus on the item given below.
// CC(=O)[O-].C[NH2+]CCO [N-methyl-2-hydroxyethylammonium acetate] : mass density value = 1090.56
